test system: HT-29; test: Viability assay with HT-29; format: cell-based; details: HT-29, viability assay per Example 57
pEC50: −log10 of the molar value. Counter-ions that a name gives are not always drawn.
Property: pEC50

>  <Molecule>
COc1cccc(CN2CCC(Cc3ccc4c(c3)c(-c3ccc(OC(F)(F)F)cc3CN)cn4CCCN)CC2)c1 [C291; HCl]

>  <pEC50>
≥ 5.30

$$$$
>  <Molecule>
NCCCn1cc(-c2ccc(OC(F)(F)F)cc2CN)c2cc(CN3CCOCC3)ccc21 [C265; HCl]

>  <pEC50>
≥ 5.30

$$$$
>  <Molecule>
COc1cnc(-c2cn(CCCN)c3ccc(CN4CCN(Cc5ccccc5Cl)CC4)cc23)nc1 [C204; HCl]

>  <pEC50>
≥ 5.30

$$$$

The molecule FC(F)(F)Oc1ccc(-c2cn(C3CCNCC3)c3ccc(CN4CCN(Cc5ccccc5Cl)CC4)cc23)cc1 [C170; HCl] showed pEC50 equal to ≥ 5.30

Please fill in: pEC50 reported for NCCCn1cc(-c2ccc(OC(F)(F)F)cc2)c2cc(CN3CCC(NCC(F)(F)F)CC3)ccc21 [C233; HCl] = 5.00 to 5.30

Record NCCCn1cc(-c2ccc(OC(F)(F)F)cc2CN)c2cc(CN3CCCC(NCC(F)(F)F)C3)ccc21 (centres unmarked) [C276; HCl] , field pEC50: 5.00 to 5.30

pEC50 recorded for this molecule, NCCCn1cc(-c2ccc(CCN)cc2)c2cc(CN3CCN(Cc4ccccc4Cl)CC3)ccc21 [C188; HCl] , is 5.00 to 5.30

Please fill in: pEC50 reported for FC(F)(F)Oc1ccc(-c2cn(C3CCNC3)c3ccc(CN4CCN(Cc5ccccc5Cl)CC4)cc23)cc1 (centres unmarked) [C197; HCl] = ≥ 5.30

---

test system: HT-29; experiment: Viability assay with HT-29; assay type: cell-based; conditions: HT-29, viability assay per Example 57
pEC50: −log10 of the molar value. Counter-ions that a name gives are not always drawn.
Property: pEC50

>  <Compound>
FC(F)(F)Oc1ccc(-c2cn(CCCCN(c3ccccn3)c3ccccn3)c3ccc(CN4CCN(Cc5ccccc5Cl)CC4)cc23)cc1 [C205; Formic Acid]

>  <Property>
pEC50

>  <Result>
5.00 to 5.30

$$$$

Field pEC50 (HT-29), entry NCc1cc(OC(F)(F)F)ccc1-c1cn(CCCNC(=O)C2(N)CCNCC2)c2ccc(CN3CCN(Cc4ccccc4Cl)CC3)cc12 [C264; HCl] : 5.00 to 5.30

Item NCCCn1cc(-c2ccc(OC(F)(F)F)cc2)c2cc(CN3CCN(CCc4ccccc4Cl)CC3)ccc21 [C140; HCl] ; assay system HT-29; pEC50 reported as ≥ 5.30

Test item COc1ccc(-c2cn(CCCN)c3ccc(CN4CCN(Cc5ccccc5Cl)CC4)cc23)cn1 [C141; HCl] ; HT-29; reported pEC50 was ≥ 5.30

The value of pEC50 recorded for CC(C)(N)CCCn1cc(-c2ccc(OC(F)(F)F)cc2)c2cc(CN3CCN(Cc4ccccc4Cl)CC3)ccc21 [C132; Formic acid] when tested on HT-29 reads ≥ 5.30

Noted pEC50 for NCc1cc(-n2cc(-c3ccc(OC(F)(F)F)cc3)c3cc(CN4CCN(Cc5ccccc5Cl)CC4)ccc32)ccn1 [C229; Formic Acid] , tested on HT-29: ≥ 5.30

Here NCCCn1cc(-c2ccc(OC(F)(F)F)cc2CN)c2cc(CN3CCC4(CC3)CCN(Cc3ccccc3Cl)C4)ccc21 [C249; Formic Acid] was tested on HT-29, and its pEC50 came to ≥ 5.30

---

Each entry below carries its recorded EC50.
system: HT-29; test: Viability assay with HT-29; assay type: cell-based; details: HT-29, viability assay per Example 57
Structures can show the parent of a compound that is named as a salt.

Worked examples, 2 compounds total:
>  <Compound>
NCc1cccc(-n2cc(-c3ccc(OC(F)(F)F)cc3)c3cc(CN4CCN(Cc5ccccc5Cl)CC4)ccc32)c1 [C150; Formic acid]

>  <EC50>
≤ 5 µM

$$$$
>  <Compound>
COc1cc(CN2CCN(S(=O)(=O)c3ccc4c(c3)c(-c3ccc(OC(F)(F)F)cc3CN)cn4CCCN)CC2)cc(OC)c1 [C240; Formic Acid]

>  <EC50>
≤ 5 µM

$$$$

Then this compound:
Reported EC50 of COc1cc(CN2CCN(Cc3ccc4c(c3)c(-c3ccc(OC(F)(F)F)cc3CN)cn4C3CCNCC3)CC2)cc(OC)c1 [C275; HCl] : ≤ 5 µM

---

Test system: HT-29
Test: Viability assay with HT-29
Assay type: cell-based
Conditions: HT-29, viability assay per Example 57
Description: NCI-H460 (Epithelial lung tissue; carcinoma; large cell lung cancer) were cultured in RPMI Medium 1640 (Invitrogen-22400105) supplemented with 10% fetal bovine serum (FBS; Invitrogen-10099141). All the cell lines were maintained in a humidified incubator at 37° C. with 5% CO2. Cell culture media and supplements were purchased from Invitrogen, and tissue culture flasks were purchased from Corning, 96-well plates were purchased from Greiner. […]
pEC50: −log10 of the molar value. Where a name gives a salt, the structure may show the parent alone.
Property: pEC50

>  <Molecule>
NCCCn1cc(-c2ccc(OC(F)(F)F)cc2CN)c2cc(CN3CCCCC3)ccc21 [C260; HCl]

>  <Tested on>
HT-29

>  <Property>
pEC50

>  <Result>
5.00 to 5.30

$$$$
>  <Molecule>
CCC1CCN(Cc2ccc3c(c2)c(-c2ccc(OC(F)(F)F)cc2)cn3CCCN)CC1 [C226; HCl]

>  <Tested on>
HT-29

>  <Property>
pEC50

>  <Result>
≥ 5.30

$$$$
>  <Molecule>
COc1cccc(Cl)c1-c1cn(CCCN)c2ccc(CN3CCN(Cc4c(Cl)cccc4Cl)CC3)cc12 [C154; HCl]

>  <Tested on>
HT-29

>  <Property>
pEC50

>  <Result>
≥ 5.30

$$$$
>  <Molecule>
NC1CCC(n2cc(-c3ccc(OC(F)(F)F)cc3)c3cc(CN4CCN(Cc5ccccc5Cl)CC4)ccc32)C1 (stereo not drawn) [C134; HCl]

>  <Tested on>
HT-29

>  <Property>
pEC50

>  <Result>
≥ 5.30

$$$$

pEC50 for COc1ncc(-c2cn(CCCN)c3ccc(CN4CCN(Cc5ccccc5Cl)CC4)cc23)cn1 [C143; HCl] is 5.00 to 5.30

pEC50 for NCCCn1cc(-c2cn[nH]c2)c2cc(CN3CCN(Cc4ccccc4Cl)CC3)ccc21 [C192; HCl] is 5.00 to 5.30

Looking up COc1ccccc1CN1CCN(Cc2ccc3c(c2)c2ccccc2n3CCCN)CC1 [C268; HCl] , I found its pEC50 recorded as ≥ 5.30

The reported value for COc1cccc(CCCCN(C)Cc2ccc3c(c2)c(-c2ccc(OC(F)(F)F)cc2CN)cn3CCCN)c1 [C298; HCl] in terms of pEC50 is ≥ 5.30

---

system: HT-29; assay: Viability assay with HT-29; type: cell-based; settings: HT-29, viability assay per Example 57
pEC50: −log10 of the molar value. Counter-ions that a name gives are not always drawn.
pEC50 values by entry

Record excerpt, results attached:
>  <Molecule>
NCc1ccc(Cn2cc(-c3ccc(OC(F)(F)F)cc3)c3cc(CN4CCN(Cc5ccccc5Cl)CC4)ccc32)cn1

>  <pEC50>
≥ 5.30

$$$$
>  <Molecule>
NCCCn1cc(-c2ccc(OC(F)(F)F)cc2CN)c2cc(CN3CCC(O)CC3)ccc21 [C290; HCl]

>  <pEC50>
5.00 to 5.30

$$$$
>  <Molecule>
NCCCn1cc(-c2ccc(OC(F)(F)F)cc2)c2cc(CN3CCC4(CCN(Cc5ccccc5Cl)CC4)C3)ccc21 [C169; HCl]

>  <pEC50>
≥ 5.30

$$$$

The recorded pEC50 for entry COc1ccc(-c2cn(CCCN)c3ccc(CN4CCN(Cc5ccccc5Cl)CC4)cc23)nc1 [C196; HCl] equals ≥ 5.30

Form field pEC50, entry FC(F)(F)Oc1ccc(-c2cn(CC3CCNCC3)c3ccc(CN4CCC(Cc5ccccc5Cl)CC4)cc23)cc1 [C228; HCl] : ≥ 5.30

Reported pEC50 for Cc1ccc(-c2cn(CCCN)c3ccc(CC4CCN(Cc5ccccc5Cl)CC4)cc23)c(CN)c1 was ≥ 5.30

Kindly note the recorded pEC50 for NCCCn1cc(-c2ccc(OC(F)(F)F)cc2)c2cc(CN3CCN(Cc4ccc(Cl)cc4Cl)CC3)ccc21 [C135; HCl] , which is ≥ 5.30

Briefly, pEC50 measured for Nc1ccc(Cn2cc(-c3ccc(OC(F)(F)F)cc3)c3cc(CN4CCN(Cc5ccccc5Cl)CC4)ccc32)cn1 : ≥ 5.30

---

test system: HT-29; assay: Viability assay with HT-29; type: cell-based; conditions: HT-29, viability assay per Example 57
Where a name gives a salt, the structure may show the parent alone.
Property: EC50

Input NCCCn1cc(-c2ccc(OC(F)(F)F)cc2)c2cc(CN3CCC(Oc4cccc(Cl)c4)CC3)ccc21 [C236; HCl] . Output EC50: ≤ 5 µM

Item: FC(F)(F)Oc1ccc(-c2cn(CCCNc3ccccn3)c3ccc(CN4CCN(Cc5ccccc5Cl)CC4)cc23)cc1 [C208; Formic Acid] | EC50: 5 to 10 µM

// EC50 lookup, compound = NCCCn1cc(-c2ccc(OC(F)(F)F)cc2)c2cc(Nc3ccc(Nc4ccccc4Cl)nc3)ccc21 [C246; Formic Acid] , result: 10 to 30 µM

For record NCCCn1cc(-c2ccc(OC(F)(F)F)cc2)c2cc(CN3CCN(Cc4ncccc4Cl)CC3)ccc21 [C151; HCl] the listed EC50 is ≤ 5 µM
